All figures here come from PubChem BioAssay AID248.

System: L1210 leukemia ip in BDF1 mice, survival T/C
Experiment: NCI In Vivo Anticancer Drug Screen. Data for tumor model L1210 Leukemia (intraperitoneal) in B6D2F1 (BDF1) mice
Conditions: endpoint: mean survival time; dose: 200.0 mg/kg/injection; schedule: Q01DX009 (ip); vehicle: saline with Tween-80; higher = longer survival
Inconclusive results and toxic doses are left out.
Exercise: state measured T/C for each of the compounds provided.

Would you mind listing T/C for each of the following compounds?
1. COc1ccc(Cl)cc1NC(=O)N/N=C(\C)CC(C)C
2. ClCc1csc(-c2ccccc2)n1
3. CN(C)CCc1ccccc1
4. COc1cc(C=O)ccc1OCc1ccccc1
5. Cc1cccnc1NS(=O)(=O)c1ccccc1

1: 91 % of control; 2: 94 % of control; 3: 95 % of control; 4: 96 % of control; 5: 98 % of control

Would you mind listing T/C for each of the following compounds?
1. Cc1c(Cl)cccc1N1C(=O)CC(Sc2ccccc2N)C1=O (configuration not stated)
2. COC(=O)C(C(=O)OC)C(c1ccccc1)C(Br)(C(=O)OC)C(=O)OC (configuration not stated)

1. 107 % of control
2. 94 % of control
